Test system: human red blood cells
Assay type: cell-based
Conditions: red cells of human, 1 h
No end group written: not given here.
Observed Property: HL50 (50% of human red blood cells were lysed) (µg/mL)

# Query Sequence, Assayed Target, Unit Text, Reported Measurement
measured = [
    ("LWKIGKKIWRVLWNWR [C18]", "human red blood cells", "µg/mL", 16),
    ("LWKIWKKIWRVWKNWR [C16]", "human red blood cells", "µg/mL", 16),
    ("LWKIWWKIWRVWKNWR [C22]", "human red blood cells", "µg/mL", 4),
    ("LWKIWKKIWRVGWNWR [C13]", "human red blood cells", "µg/mL", 48),
]

###

System: S. aureus MW2
Assay: Checkerboard synergy of C18 with clinical antibacterial agents
Format: cell-based, Staphylococcus aureus
Conditions: named agent combined with C18, S. aureus MW2, checkerboard

# Molecule, Kind of interaction with C18
measured = [
    ("Cc1onc(-c2ccccc2)c1C(=O)N[C@@H]1C(=O)N2[C@@H]1SC(C)(C)[C@@H]2C(=O)O [oxacillin]", "additive effect"),
    ("CN[C@H](CC(C)C)C(=O)N[C@H]1C(=O)N[C@@H](CC(N)=O)C(=O)N[C@H]2C(=O)N[C@H]3C(=O)N[C@H](C(=O)N[C@H](C(=O)O)c4cc(O)cc(O)c4-c4cc3ccc4O)[C@H](O)c3ccc(c(Cl)c3)Oc3cc2cc(c3O[C@@H]2O[C@H](CO)[C@@H](O)[C@H](O)[C@H]2O[C@H]2C[C@](C)(N)[C@H](O)[C@H](C)O2)Oc2ccc(cc2Cl)[C@H]1O [vancomycin]", "additive effect"),
    ("CNC(C)C1CCC(N)C(OC2C(N)CC(N)C(OC3OCC(C)(O)C(NC)C3O)C2O)O1 (stereo not shown) [gentamicin]", "additive effect"),
]

From: paper PMC7824259
